Source listed as PubChem BioAssay AID1963826.

Assignment: determine reported IC50 for the given compounds.
Tested on: 926638-142-R-J1-PDC complex spheroid viability
Experiment: Anticancer human tumor 926638-142-R-J1-PDC patient-derived endometrial carcinoma cell line growth inhibition [POLQ]
Details: curve of first compound; second compound 0.1 µM

*Q* Fill in IC50 for record CNCc1ccc(-c2[nH]c3cc(F)cc4c3c2CCNC4=O)cc1 + COC1C(OC(N)=O)C(O)C(Oc2ccc3c(O)c(NC(=O)c4ccc(O)c(CC=C(C)C)c4)c(=O)oc3c2C)OC1(C)C
*A* > 10 µM

*Q* Name the recorded IC50 of the compound listed here: O=C(Nc1ccc(O)c(NS(=O)(=O)c2ccc(F)cc2)c1)c1ccc(-c2ccccc2)cc1 + Cc1cccc(N(C)C(=O)C2C(O)CCN2c2nc(C)cc(C(F)(F)F)c2C#N)c1
*A* > 10 µM

*Q* // Input: Cn1ncnc1[C@H]1c2n[nH]c(=O)c3cc(F)cc(c23)N[C@@H]1c1ccc(F)cc1 + Cc1cccc(N(C)C(=O)C2C(O)CCN2c2nc(C)cc(C(F)(F)F)c2C#N)c1 . Output its IC50 only.
*A* > 0.1 µM

*Q* Report IC50, nothing else, for this compound: COc1cc(C2c3cc4c(cc3C(OC3OC5COC(C)OC5C(O)C3O)C3COC(=O)C23)OCO4)cc(OC)c1O (stereo not given) + COC1C(OC(N)=O)C(O)C(Oc2ccc3c(O)c(NC(=O)c4ccc(O)c(CC=C(C)C)c4)c(=O)oc3c2C)OC1(C)C
*A* > 10 µM

*Q* Tell me its IC50 given C#Cc1c(F)ccc2cc(O)cc(-c3ncc4c(N5CC6CCC(C5)N6)nc(OCC56CCCN5CC(F)C6)nc4c3F)c12 (stereo not given) + Nc1ccc(C#CCN(C(=O)Cc2ncc(C(F)(F)F)cc2C(F)(F)F)c2ccc(F)cc2)nn1 as the entry.
*A* > 10 µM

* * *

Tested on: 926638-142-R-J1-PDC complex spheroid viability
Assay: Anticancer human tumor 926638-142-R-J1-PDC cell line growth inhibition [POLQ];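 note: spheroids exposed to drugs for one week before readout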;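 for viability, T/C: percent viability relative to DMSO vehicle control wells set as 100%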
Conditions: second compound 10 µM; first compound 0.316 µM; stronger effect = lower value
For each of the compounds below, state its viability, T/C.
Answer with a number only, understood to be in %.

*Q* Find the measured viability, T/C of COc1ccc([C@@H](O)c2cc(-c3ncnc4cc(N5CCOCC5)ccc34)c(F)cc2Cl)nn1 + COC1C(OC(N)=O)C(O)C(Oc2ccc3c(O)c(NC(=O)c4ccc(O)c(CC=C(C)C)c4)c(=O)oc3c2C)OC1(C)C with 926638-142-R-J1-PDC complex spheroid viability as test system.
*A* 57.8

*Q* GET viability, T/C | system: 926638-142-R-J1-PDC complex spheroid viability | item: C=CCn1c(=O)c2cnc(Nc3ccc(N4CCN(C)CC4)cc3)nc2n1-c1cccc(C(C)(C)O)n1 + Cc1cccc(N(C)C(=O)C2C(O)CCN2c2nc(C)cc(C(F)(F)F)c2C#N)c1
*A* 46.5

*Q* # return viability, T/C for O=c1[nH]cc(F)c(=O)[nH]1 + COC1C(OC(N)=O)C(O)C(Oc2ccc3c(O)c(NC(=O)c4ccc(O)c(CC=C(C)C)c4)c(=O)oc3c2C)OC1(C)C , test system: 926638-142-R-J1-PDC complex spheroid viability
*A* 77.1

*Q* Recall the reported viability, T/C of COc1cc(C2c3cc4c(cc3C(OC3OC5COC(C)OC5C(O)C3O)C3COC(=O)C23)OCO4)cc(OC)c1O (centres undefined) + Nc1ccc(C#CCN(C(=O)Cc2ncc(C(F)(F)F)cc2C(F)(F)F)c2ccc(F)cc2)nn1 on 926638-142-R-J1-PDC complex spheroid viability and write it down.
*A* 73.3

*Q* Report its viability, T/C with 926638-142-R-J1-PDC complex spheroid viability as the test system: C#Cc1c(F)ccc2cc(O)cc(-c3ncc4c(N5CC6CCC(C5)N6)nc(OCC56CCCN5CC(F)C6)nc4c3F)c12 (centres undefined) + COC1C(OC(N)=O)C(O)C(Oc2ccc3c(O)c(NC(=O)c4ccc(O)c(CC=C(C)C)c4)c(=O)oc3c2C)OC1(C)C
*A* 91.3

*Q* Check 926638-142-R-J1-PDC complex spheroid viability data and give viability, T/C for COc1cccc(OCCCN)c1-c1cc(Nc2cnc(C#N)cn2)n[nH]1 + COC1C(OC(N)=O)C(O)C(Oc2ccc3c(O)c(NC(=O)c4ccc(O)c(CC=C(C)C)c4)c(=O)oc3c2C)OC1(C)C .
*A* 36.9

*Q* Identify measured viability, T/C obtained with 926638-142-R-J1-PDC complex spheroid viability for CC1COCCN1c1cc(C2(O)CC3CCC(C2)O3)c2cnn(-c3ccn[nH]3)c2n1 (centres undefined) + Cc1cccc(N(C)C(=O)C2C(O)CCN2c2nc(C)cc(C(F)(F)F)c2C#N)c1 .
*A* 33.5

*Q* Provide measured viability, T/C on 926638-142-R-J1-PDC complex spheroid viability for CC1COCCN1c1cc(C2(S(C)(=N)=O)CC2)nc(-c2ccnc3[nH]ccc23)n1 (centres undefined) + COC1C(OC(N)=O)C(O)C(Oc2ccc3c(O)c(NC(=O)c4ccc(O)c(CC=C(C)C)c4)c(=O)oc3c2C)OC1(C)C please.
*A* 100

*Q* Please report viability, T/C with 926638-142-R-J1-PDC complex spheroid viability for item COc1cccc(OCCCN)c1-c1cc(Nc2cnc(C#N)cn2)n[nH]1 + Cc1cccc(N(C)C(=O)C2C(O)CCN2c2nc(C)cc(C(F)(F)F)c2C#N)c1 .
*A* 38.6
